measured.endpoint: melting point

What measured melting point goes with COc1cccc(C(C#CCOCc2ccccc2)c2cc3c(cc2O)NC(=O)C3)c1OC (stereo not shown) [Compound 2b] ?
177 to 179 °C

What measured melting point goes with Cc1ccsc1/C=C1\C(=O)Nc2cc3oc(Cc4ccccc4)c(-c4ccccc4)c3cc21 [Compound 3i] ?
165 to 168 °C

What measured melting point goes with Cc1ccc(S(=O)(=O)n2cc(-c3c(Cc4ccccc4)oc4cc5c(cc34)/C(=C/c3[nH]c(C)cc3C)C(=O)N5)c3ccccc32)cc1 [Compound 3m] ?
174 to 176 °C

What measured melting point goes with Cc1ccsc1/C=C1\C(=O)Nc2cc(O)c(C(C#Cc3ccccc3)c3ccccc3)cc21 (stereo not shown) [Compound 3d] ?
182 to 185 °C

What measured melting point goes with CN(C)c1ccc(/C=C2\C(=O)Nc3cc4oc(Cc5ccccc5)c(-c5ccccc5)c4cc32)c2ccccc12 [Compound 3j] ?
241 to 245 °C

What measured melting point goes with Cc1ccc(S(=O)(=O)n2cc(C(C#Cc3ccccc3)c3cc4c(cc3O)NC(=O)/C4=C\c3[nH]c(C)cc3C)c3ccccc32)cc1 (stereo not shown) [Compound 3g] ?
185 to 186 °C

What measured melting point goes with O=C1Cc2cc(C(C#Cc3ccccc3)c3ccccc3)c(O)cc2N1 (stereo not shown) [Compound 2a] ?
195 to 196 °C

What measured melting point goes with COc1cccc(C(C#CCOCc2ccccc2)c2cc3c(cc2O)NC(=O)/C3=C\c2[nH]c(C)cc2C)c1OC (stereo not shown) [Compound 3f] ?
181 to 183 °C

What measured melting point goes with Cc1cc(C)c(/C=C2\C(=O)Nc3cc4oc(Cc5ccccc5)c(-c5ccccc5)c4cc32)[nH]1 [Compound 3h] ?
186 to 188 °C

What measured melting point goes with Cc1cc(C)c(/C=C2\C(=O)Nc3cc(O)c(C(C#Cc4ccccc4)c4ccccc4)cc32)[nH]1 (stereo not shown) [Compound 3c] ?
173 to 179 °C

What measured melting point goes with O=C1Cc2cc3c(-c4ccccc4)c(Cc4ccccc4)oc3cc2N1 [Compound 3a] ?
196 to 198 °C

What measured melting point goes with CN(C)c1ccc(/C=C2\C(=O)Nc3cc(O)c(C(C#Cc4ccccc4)c4ccccc4)cc32)c2ccccc12 (stereo not shown) [Compound 3e] ?
188 to 192 °C

What measured melting point goes with COc1cccc(-c2c(CCOCc3ccccc3)oc3cc4c(cc23)CC(=O)N4)c1OC [Compound 3b] ?
120 to 122 °C
